Experiment: Drug related lethality is percent animals in treated groups dying prior to first tumor related death in untreated groups measured in BDF1 mice after iv administration at 30 mg/kg dose 3 days after tumor challenge
Format: toxicity, organism-based
Parameters: dose 30 mg/kg, route intravenous
Details: BDF1, mus sp., in vivo, read-out: Lethality
Assay metric: mortality at 72 h (%)
Report as a plain number; the unit % is understood.

Q: Given the entry COc1cccc2c1C(=O)c1c(O)c3c(c(O)c1C2=O)C[C@@](O)(C(=O)CO)C[C@@H]3O[C@H]1C[C@H](N)[C@H](O)[C@H](C)O1 , report its measured mortality at 72 h.
A: 100

----------
Experiment: Drug related lethality is percent animals in treated groups dying prior to first tumor related death in untreated groups measured in BDF1 mice after ip administration at 50 mg/kg dose 2-4 days after tumor challenge
Assay type: toxicity, organism-based
Set-up: dose 50 mg/kg, route intraperitoneal
Conditions: BDF1, mus sp., in vivo, read-out: Lethality
Assay metric: mortality (%)
Report as a plain number; the unit % is understood.

Q: Given the entry O=c1[nH]cc(F)c(=O)[nH]1 , report its measured mortality.
A: 0

----------
Assay: Drug related lethality is percent animals in treated groups dying prior to first tumor related death in untreated groups measured in BDF1 mice after iv administration at 20 mg/kg dose 3 days after tumor challenge
Format: toxicity, organism-based
Parameters: dose 20 mg/kg, route intravenous
Conditions: BDF1, mus sp., in vivo, read-out: Lethality
Assay metric: mortality at 72 h (%)
Report as a plain number; the unit % is understood.

Q: Given the entry COc1cccc2c1C(=O)c1c(O)c3c(c(O)c1C2=O)C[C@@](O)(C(=O)CO)C[C@@H]3O[C@H]1C[C@H](N)[C@H](O)[C@H](C)O1 , report its measured mortality at 72 h.
A: 15

----------
Test: Drug related lethality is percent animals in treated groups dying prior to first tumor related death in untreated groups measured in BDF1 mice after iv administration at 25 mg/kg dose 3 days after tumor challenge
Type: toxicity, organism-based
Design: dose 25 mg/kg, route intravenous
Conditions: BDF1, mus sp., in vivo, read-out: Lethality
Assay metric: mortality at 72 h (%)
Report as a plain number; the unit % is understood.

Q: Given the entry COc1cccc2c1C(=O)c1c(O)c3c(c(O)c1C2=O)C[C@@](O)(C(=O)CO)C[C@@H]3O[C@H]1C[C@H](N)[C@H](O)[C@H](C)O1 , report its measured mortality at 72 h.
A: 72

----------
Test: Drug related lethality is percent animals in treated groups dying prior to first tumor related death in untreated groups measured in BDF1 mice after iv administration at 15 mg/kg dose 3 days after tumor challenge
Type: toxicity, organism-based
Parameters: dose 15 mg/kg, route intravenous
Settings: BDF1, mus sp., in vivo, read-out: Lethality
Assay metric: mortality at 72 h
Report the figure along with its unit, number first.

Q: Given the entry COc1cccc2c1C(=O)c1c(O)c3c(c(O)c1C2=O)C[C@@](O)(C(=O)CO)C[C@@H]3O[C@H]1C[C@H](N)[C@H](O)[C@H](C)O1 [DOXORUBICIN] , report its measured mortality at 72 h.
A: 21%

----------
Experiment: Drug related lethality is percent animals in treated groups dying prior to first tumor related death in untreated groups measured in BDF1 mice after ip administration at 32 mg/kg dose days 3,7,11 after tumor challenge
Assay type: toxicity, organism-based
Parameters: dose 32 mg/kg, route intraperitoneal
Conditions: BDF1, mus sp., in vivo, read-out: Lethality
Assay metric: mortality (%)
Report as a plain number; the unit % is understood.

Q: Given the entry COc1cc([C@@H]2c3cc4c(cc3[C@@H](O[C@@H]3O[C@@H]5CO[C@@H](C)O[C@H]5[C@H](O)[C@H]3O)[C@H]3COC(=O)[C@H]23)OCO4)cc(OC)c1O [ETOPOSIDE] , report its measured mortality.
A: 7

----------
Assay: Drug related lethality is percent animals in treated groups dying prior to first tumor related death in untreated groups measured in BDF1 mice after iv administration at 2.5 mg/kg dose 3 days after tumor challenge
Type: toxicity, organism-based
Set-up: dose 2.5 mg/kg, route intravenous
Details: BDF1, mus sp., in vivo, read-out: Lethality
Assay metric: mortality at 72 h (%)
Report as a plain number; the unit % is understood.

Q: Given the entry COc1cccc2c1C(=O)c1c(O)c3c(c(O)c1C2=O)C[C@@](O)(C(=O)CO)C[C@@H]3O[C@H]1C[C@H](N)[C@H](O)[C@H](C)O1 , report its measured mortality at 72 h.
A: 0
